The values you see were collected from ChEMBL document CHEMBL3885861.

Species on record: Rattus norvegicus
assay info: Open TG-GATES - Regimen: Single
Format: toxicity, organism-based, Sprague-Dawley
Set-up: regimen Single, gender Male, age 6 weeks
conditions used: in vivo, po, 1000 mg/kg, 9 h, tissue Plasma, route gavage, dose level High
Binarize Cl at 100 meq/L; below is criterion met, at or above is criterion not met.

Prompt line: Hello, I'm reviewing records and need to know if Cl of COC(=O)C1=C(C)NC(C)=C(C(=O)OC)C1c1ccccc1[N+](=O)[O-] is below 100 meq/L. Could you check?
Response line: criterion met

Prompt line: Hello, I'm reviewing records and need to know if Cl of O=C(OC[C@H]1O[C@@H](OC(=O)c2cc(O)c(O)c(OC(=O)c3cc(O)c(O)c(O)c3)c2)[C@H](OC(=O)c2cc(O)c(O)c(OC(=O)c3cc(O)c(O)c(O)c3)c2)[C@@H](OC(=O)c2cc(O)c(O)c(OC(=O)c3cc(O)c(O)c(O)c3)c2)[C@@H]1OC(=O)c1cc(O)c(O)c(OC(=O)c2cc(O)c(O)c(O)c2)c1)c1cc(O)c(O)c(OC(=O)c2cc(O)c(O)c(O)c2)c1 is below 100 meq/L. Could you check?
Response line: criterion not met

Prompt line: Hello, I'm reviewing records and need to know if Cl of CNC(=C[N+](=O)[O-])NCCSCc1ccc(CN(C)C)o1 is below 100 meq/L. Could you check?
Response line: criterion not met

Prompt line: Hello, I'm reviewing records and need to know if Cl of Cc1nnc2n1-c1ccc(Cl)cc1C(c1ccccc1Cl)=NC2 is below 100 meq/L. Could you check?
Response line: criterion not met

Prompt line: Hello, I'm reviewing records and need to know if Cl of CN/C(=N/CCSCc1nc[nH]c1C)NC#N is below 100 meq/L. Could you check?
Response line: criterion not met

---

Species: Rattus norvegicus
assay info: Open TG-GATES - Regimen: Daily Repeat
Type: toxicity, organism-based, Sprague-Dawley
Parameters: regimen Daily Repeat, gender Male, age 6 weeks
conditions used: in vivo, po, 1000 mg/kg, […], tissue Blood, route gavage, dose level High, time 7 day
readout: Hb (g/dL)
Give a bare numeral; the unit g/dL is implied.

Prompt line: Recorded Hb of Cc1nnc2n1-c1ccc(Cl)cc1C(c1ccccc1Cl)=NC2 , please.
Response line: 13.7

Prompt line: Recorded Hb of O=C(OC[C@H]1O[C@@H](OC(=O)c2cc(O)c(O)c(OC(=O)c3cc(O)c(O)c(O)c3)c2)[C@H](OC(=O)c2cc(O)c(O)c(OC(=O)c3cc(O)c(O)c(O)c3)c2)[C@@H](OC(=O)c2cc(O)c(O)c(OC(=O)c3cc(O)c(O)c(O)c3)c2)[C@@H]1OC(=O)c1cc(O)c(O)c(OC(=O)c2cc(O)c(O)c(O)c2)c1)c1cc(O)c(O)c(OC(=O)c2cc(O)c(O)c(O)c2)c1 , please.
Response line: 13.3

Prompt line: Recorded Hb of CN/C(=N/CCSCc1nc[nH]c1C)NC#N , please.
Response line: 13.6

Prompt line: Recorded Hb of COC(=O)C1=C(C)NC(C)=C(C(=O)OC)C1c1ccccc1[N+](=O)[O-] , please.
Response line: 14.1

Prompt line: Recorded Hb of CNC(=C[N+](=O)[O-])NCCSCc1ccc(CN(C)C)o1 , please.
Response line: 13.9
